Test: PK-PD modeling of seizure frequency (Emax model, Example 54)
Assay type: in vivo, human
Conditions: human, plasma, 250 mg; read-out: Corresponding AUCτ,ss
property: AUC (ng·h/mL)
Write the number in ng·h/mL without appending the unit.

Which AUC is listed for COC[C@@H](NC(C)=O)C(=O)NCc1ccccc1 [Lacosamide] ?
83300

* * *

Experiment: PK-PD modeling of seizure frequency (Emax model, Example 54)
Assay type: in vivo, human
Conditions: human, plasma, 300 mg; read-out: Corresponding AUCτ,ss
property: AUC (ng·h/mL)
Numeric answer only, unit ng·h/mL assumed.

Please report the recorded AUC for COC[C@@H](NC(C)=O)C(=O)NCc1ccccc1 [Lacosamide] .
100000

* * *

Experiment: PK-PD modeling of seizure frequency (Emax model, Example 54)
Assay type: in vivo, human
Settings: human, plasma, 100 mg; read-out: Corresponding AUCτ,ss
property: AUC
In your response, the unit should come after the numeric value.

What AUC value was documented for this compound, COC[C@@H](NC(C)=O)C(=O)NCc1ccccc1 [Lacosamide] ?
33300 ng·h/mL

* * *

Test: PK-PD modeling of seizure frequency (Emax model, Example 54)
Format: in vivo, human
Details: human, plasma, 200 mg; read-out: Corresponding AUCτ,ss
property: AUC (ng·h/mL)
Quick reminder: number only, in ng·h/mL, skip the unit.

Would you mind telling me what AUC value was observed for COC[C@@H](NC(C)=O)C(=O)NCc1ccccc1 [Lacosamide] ?
66700

Recorded values, source patent US20150104507A1.
